- test_system: Prostaglandin G/H synthase 1 (Ovis aries)
- Sequence (P05979 whole entry): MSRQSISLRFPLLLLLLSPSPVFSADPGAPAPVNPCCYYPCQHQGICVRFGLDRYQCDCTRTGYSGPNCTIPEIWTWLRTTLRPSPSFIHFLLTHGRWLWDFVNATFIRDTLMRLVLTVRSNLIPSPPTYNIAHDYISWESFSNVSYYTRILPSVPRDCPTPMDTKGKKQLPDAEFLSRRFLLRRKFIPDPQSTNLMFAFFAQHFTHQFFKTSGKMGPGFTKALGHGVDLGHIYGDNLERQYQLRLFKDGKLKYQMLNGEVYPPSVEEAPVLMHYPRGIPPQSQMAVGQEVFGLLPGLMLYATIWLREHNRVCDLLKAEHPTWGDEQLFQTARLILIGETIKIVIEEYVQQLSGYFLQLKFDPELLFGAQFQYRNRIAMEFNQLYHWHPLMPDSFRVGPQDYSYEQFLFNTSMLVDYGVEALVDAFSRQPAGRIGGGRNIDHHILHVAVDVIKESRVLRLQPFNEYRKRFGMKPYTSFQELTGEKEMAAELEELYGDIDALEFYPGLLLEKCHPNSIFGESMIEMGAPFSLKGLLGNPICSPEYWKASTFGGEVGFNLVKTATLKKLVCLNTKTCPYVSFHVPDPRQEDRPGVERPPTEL
- protocol_description: Inhibition of ovine COX-1 using arachidonic acid as substrate in presence of hemin by TMPD reagent-based colorimetry
quantity_kind: IC50 (µM)

[
  {
    "molecule": "Cc1ccc(-c2nnc(CN3CCN(C(c4ccccc4)c4ccc(Cl)cc4)CC3)o2)cc1 (centres undefined)",
    "test_system": "Prostaglandin G/H synthase 1 (Ovis aries)",
    "IC50, µM": 32.1
  },
  {
    "molecule": "Fc1ccc(-c2nnc(CN3CCN(C(c4ccccc4)c4ccc(Cl)cc4)CC3)o2)c(F)c1 (centres undefined)",
    "test_system": "Prostaglandin G/H synthase 1 (Ovis aries)",
    "IC50, µM": 34.8
  },
  {
    "molecule": "O=[N+]([O-])c1ccc(-c2nnc(CN3CCN(C(c4ccccc4)c4ccc(Cl)cc4)CC3)o2)cc1 (centres undefined)",
    "test_system": "Prostaglandin G/H synthase 1 (Ovis aries)",
    "IC50, µM": 41.1
  },
  {
    "molecule": "FC(F)(F)Oc1ccc(-c2nnc(CN3CCN(C(c4ccccc4)c4ccc(Cl)cc4)CC3)o2)cc1 (centres undefined)",
    "test_system": "Prostaglandin G/H synthase 1 (Ovis aries)",
    "IC50, µM": 27.9
  }
]
